- System: LO2 (human hepatocyte cells)
- method: Growth inhibition of normal human cells
- Format: cell-based
- details: triplicate, mean ± SD
measurement.label: IC50 (nM)
// note: answer is a bare numeric in nM

molecule: COc1cc(C(=O)/C(F)=C/c2c[nH]c3cc(Br)ccc23)cc(OC)c1OC [4c]
IC50 [nM]: 680

Now for a further molecule.
Query string: Hi! What's the reported IC50 for COc1ccc(/C=C\c2cc(OC)c(OC)c(OC)c2)cc1O [CA-4, Combretastatin A4, reference compound] on LO2 (human hepatocyte cells)?
Result string: 5

###

- Tested on: six human cancer cell lines (MCF-7, MGC-803, HepG2, Hela, A549, U937)
- method: Antiproliferative activity, summary over the tested cancer cell lines
- Assay type: cell-based
- details: several tested cancer cell lines, range, read-out: IC50, inhibitory effect
measurement.label: IC50

Query string: Hi! What's the reported IC50 for COc1cc(C(=O)/C(F)=C/c2ccc3c(c2)CCO3)cc(OC)c1OC [4n] on six human cancer cell lines (MCF-7, MGC-803, HepG2, Hela, A549, U937)?
Result string: 31 to 364 nM

###

Recorded measurements of IC50, one per entry
- Tested on: A549 (human non-small cell lung cancer)
- method: Antiproliferative activity (SRB assay)
- Format: cell-based
- details: mean ± SD, three separated experiments, 72 h
- Experimental: MCF-7, MGC-803, Hela and HepG-2 cell lines were cultured in a base medium (90% DMEM and 10% FBS), A549 and U937 were cultured in a base medium (90% PRMI-1640 and 10% FBS) at 37 °C, 5% CO2 and a saturated humidity atmosphere. […] A549, MGC-803, MCF-7, HepG2 and Hela cells were seeded at the appropriate cell line density (3 × 10^3 to 4 × 10^3 cells/well). […] After a further 72 h of incubation, cell proliferation was quantified with SRB ([…]) to determine the number of surviving cells. […]

molecule: COc1cc(C(=O)/C(F)=C/c2oc3ccccc3c2C)cc(OC)c1OC [4p]
IC50: > 5 µM

Query string: Field request: IC50 | item: COc1cc(C(=O)/C(F)=C/c2sc3ccccc3c2C)cc(OC)c1OC [4i]
Result string: > 5 µM

Query string: Field request: IC50 | item: COc1cc(C(=O)/C(F)=C/c2cc3ccccc3s2)cc(OC)c1OC [4h]
Result string: 2.57 µM

Query string: Field request: IC50 | item: COc1cc(C(=O)/C(F)=C/c2cc3c(cc2[N+](=O)[O-])OCO3)cc(OC)c1OC [4r]
Result string: > 5 µM

###

- System: U937 (human leukaemia cells)
- method: Antiproliferative activity (CCK-8 assay)
- Format: cell-based
- details: U-937, mean ± SD, three separated experiments, 72 h
measurement.label: pIC50
// scale note: pIC50 = -log10(conc_M); give the bare number

molecule: COc1cc(C(=O)/C(F)=C/c2c(-c3ccccc3)[nH]c3ccccc23)cc(OC)c1OC
measurement.label: pIC50
reading: 6.25

Query string: Hi! What's the reported pIC50 for `COc1cc(C(=O)/C(F)=C/c2cc3ccccc3s2)cc(OC)c1OC` on U937 (human leukaemia cells)?
Result string: 6.22

Query string: Hi! What's the reported pIC50 for COc1ccc(/C=C\c2cc(OC)c(OC)c(OC)c2)cc1O [CA-4, Combretastatin A4, reference compound] on U937 (human leukaemia cells)?
Result string: 9.52

Query string: Hi! What's the reported pIC50 for `COc1cc(C(=O)/C(F)=C/c2ccc3occc3c2)cc(OC)c1OC` on U937 (human leukaemia cells)?
Result string: 6.15

Query string: Hi! What's the reported pIC50 for `COc1cc(C(=O)/C(F)=C/c2c[nH]c3cc(Br)ccc23)cc(OC)c1OC` on U937 (human leukaemia cells)?
Result string: 7.60
